Please respond with reported pIC50 for every item in the list.
assay_target: human CRTH2 (Homo sapiens, UniProt Q9Y5Y4)
Construct: expressed in transfected cells; host or cells: L1.2 cells, pEAK expression vector, puromycin-selected
Sequence (Q9Y5Y4 whole entry): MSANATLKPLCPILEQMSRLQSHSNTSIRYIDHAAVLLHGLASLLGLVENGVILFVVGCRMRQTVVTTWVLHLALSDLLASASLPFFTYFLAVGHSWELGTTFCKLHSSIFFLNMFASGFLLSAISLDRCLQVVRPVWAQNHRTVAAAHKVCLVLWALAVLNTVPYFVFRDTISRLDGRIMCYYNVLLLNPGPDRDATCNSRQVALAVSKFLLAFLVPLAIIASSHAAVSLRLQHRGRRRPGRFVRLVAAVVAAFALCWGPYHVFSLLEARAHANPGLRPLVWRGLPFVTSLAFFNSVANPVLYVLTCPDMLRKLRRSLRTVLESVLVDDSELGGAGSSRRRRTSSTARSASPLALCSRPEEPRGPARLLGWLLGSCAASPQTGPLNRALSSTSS
protocol_summary: Measurement of Ca2+ mobilization in the human CRTH2-transfected L1.2 cell line (Assay 1)
Format: cell-based
measurement_parameters: PGD2-induced Ca2+ mobilization in CRTH2-transfected L1.2 cells; compounds as yielded by solid phase synthesis, purity about 40 to 90%; read-out: Activity class
pIC50: −log10 of the molar value.

# input Dear colleague, please send me the reported pIC50 for Cc1ccc(C(=O)Nc2ccc(Cc3nc(Cl)c(CC(=O)O)c(N(C)CC(=O)NC4CCCC4)n3)cc2)cc1 [Example 1-21] when you can.
# output > 8.00

# input State its pIC50: CN(C)c1nc(Cc2ccc(NC(=O)c3ccc4cc[nH]c4c3)cc2)nc(Cl)c1CC(=O)O [Example 3-8]
# output > 8.00

# input Tell us which pIC50 value is on record for CN(C)c1nc(Cc2ccc(NC(=O)c3ccc4ccccc4c3)cc2)nc(N2CCOCC2)c1CC(=O)O [Example 7-1]
# output 7.00 to 8.00

src = patent US7960393B2
